Exercise: state measured ERβ CALUX EC01 for each of the compounds provided.
biological target: hERβ (Homo sapiens, UniProt Q92731); construct: expressed in transfected cells; host or cells: human U2-OS cells; assay: ERβ CALUX assay (U2-OS cell-based luciferase reporter gene); conditions: single substances; 1% effect (of 1 nM E2)
Sequence (Q92731 whole entry): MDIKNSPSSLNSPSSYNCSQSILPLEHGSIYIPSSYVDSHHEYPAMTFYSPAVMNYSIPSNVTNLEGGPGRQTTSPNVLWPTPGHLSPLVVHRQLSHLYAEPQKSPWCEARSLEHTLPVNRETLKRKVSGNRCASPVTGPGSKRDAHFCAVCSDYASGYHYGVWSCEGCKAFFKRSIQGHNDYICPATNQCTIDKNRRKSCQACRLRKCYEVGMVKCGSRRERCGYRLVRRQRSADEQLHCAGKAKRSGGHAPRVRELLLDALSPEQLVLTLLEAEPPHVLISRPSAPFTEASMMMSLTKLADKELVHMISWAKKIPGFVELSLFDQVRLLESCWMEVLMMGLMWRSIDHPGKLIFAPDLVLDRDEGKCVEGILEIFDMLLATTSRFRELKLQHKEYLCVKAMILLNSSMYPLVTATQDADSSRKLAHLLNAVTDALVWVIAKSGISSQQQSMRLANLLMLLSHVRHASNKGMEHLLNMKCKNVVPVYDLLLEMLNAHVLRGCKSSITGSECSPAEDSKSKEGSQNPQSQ
Answers are plain numbers, in µM.

- Clc1ccc(C(c2ccccc2Cl)C(Cl)(Cl)Cl)cc1 (stereo not shown) [2,4’-DDT, 2,4’-dichlorodiphenyltrichloroethane]: 0.055
- Clc1ccc(C(c2ccc(Cl)cc2)C(Cl)(Cl)Cl)cc1 [4,4’-DDT, 4,4’- dichlorodiphenyltrichloroethane]: 1.02
- OC(c1ccc(Cl)cc1)(c1cncnc1)c1ccccc1Cl (stereo not shown) [fenarimol]: 3.63

Please find the next compound below.
Supply reported ERβ CALUX EC01 belonging to this compound: CC1(C(=O)Nc2ccc(O)c(Cl)c2Cl)CCCCC1 [fenhexamid]
1.17
